assay: Placebo controlled, dose escalation pharmacokinetic study of oral (Z)-Endoxifen capsules (serum endoxifen; incl. accumulation ratios and dose linearity); assay type: in vivo, human; conditions: female, human, serum, oral, 1 mg; Day 1 hr 2; read-out: Serum concentration, Median
Measurement Label: concentration at 2 h
Number first, unit second.

[Q] Name the recorded concentration at 2 h of the item CC/C(=C(\c1ccc(O)cc1)c1ccc(OCCNC)cc1)c1ccccc1 [(Z)-Endoxifen] in your answer.
[A] 18.7 nM

====

assay: Placebo controlled, dose escalation pharmacokinetic study of oral (Z)-Endoxifen capsules (serum endoxifen; incl. accumulation ratios and dose linearity); assay type: in vivo, human; conditions: female, human, serum, oral, 1 mg; Day 1 hr 4; read-out: Serum concentration, GeoMean
Measurement Label: concentration at 4 h (nM)
Write the answer as a number in nM, unit excluded.

[Q] For the molecule CC/C(=C(\c1ccc(O)cc1)c1ccc(OCCNC)cc1)c1ccccc1 [(Z)-Endoxifen] , give its measured concentration at 4 h value.
[A] 20.1

====

Assay: Placebo controlled, dose escalation pharmacokinetic study of oral (Z)-Endoxifen capsules (serum endoxifen; incl. accumulation ratios and dose linearity)
Format: in vivo, human
Conditions: female, human, serum, po, 2 mg, Day 21; dose 2 mg oral once daily; GeoMean, N 6; read-out: Cmax
Description: An objective of the study was to assess the safety and tolerability of oral (Z)-Endoxifen when administered […] orally as a capsule to healthy female volunteers. A secondary objective was to assess the pharmacokinetics of multiple doses of oral (Z)-Endoxifen in the subjects. Generally, healthy female volunteers aged ≥18 years and ≤65 years were enrolled. 24 participants were enrolled in 3 cohorts and will be administered study drug orally. […]
Measurement Label: Cmax (ng/mL)
Please respond with the number in ng/mL and leave the unit unwritten.

[Q] Provide one value: measured Cmax of CC/C(=C(\c1ccc(O)cc1)c1ccc(OCCNC)cc1)c1ccccc1 [(Z)-Endoxifen]
[A] 48.8

====

experiment: Placebo controlled, dose escalation pharmacokinetic study of oral (Z)-Endoxifen capsules (serum endoxifen; incl. accumulation ratios and dose linearity); format: in vivo, human; conditions: female, human, serum, oral, 1 mg; Day 4 Hr 72; read-out: Serum concentration, Min
Measurement Label: concentration at 72 h (nM)
Give your result in nM as a bare value.

[Q] Given CC/C(=C(\c1ccc(O)cc1)c1ccc(OCCNC)cc1)c1ccccc1 [(Z)-Endoxifen] , respond with its concentration at 72 h.
[A] 5.35

====

experiment: Placebo controlled, dose escalation pharmacokinetic study of oral (Z)-Endoxifen capsules (serum endoxifen; incl. accumulation ratios and dose linearity); type: in vivo, human; conditions: female, human, serum, oral, 1 mg; Day 1 hr 3; read-out: Serum concentration, Mean
Measurement Label: concentration at 3 h (nM)
Express it in nM; write the number only.

[Q] Return concentration at 3 h (reported value) for this compound: CC/C(=C(\c1ccc(O)cc1)c1ccc(OCCNC)cc1)c1ccccc1 [(Z)-Endoxifen]
[A] 17.1

====

Assay: Placebo controlled, dose escalation pharmacokinetic study of oral (Z)-Endoxifen capsules (serum endoxifen; incl. accumulation ratios and dose linearity)
Type: in vivo, human
Details: female, human, serum, oral, 1 mg; Day 1 hr 24; read-out: Serum concentration, Mean
Source text: An objective of the study was to assess the safety and tolerability of oral (Z)-Endoxifen when administered […] orally as a capsule to healthy female volunteers. A secondary objective was to assess the pharmacokinetics of multiple doses of oral (Z)-Endoxifen in the subjects. Generally, healthy female volunteers aged ≥18 years and ≤65 years were enrolled. 24 participants were enrolled in 3 cohorts and will be administered study drug orally. […]
Measurement Label: concentration at 24 h (nM)
Reply with just the number (in nM).

[Q] Determine from records and report concentration at 24 h for CC/C(=C(\c1ccc(O)cc1)c1ccc(OCCNC)cc1)c1ccccc1 [(Z)-Endoxifen]
[A] 15

====

assay: Placebo controlled, dose escalation pharmacokinetic study of oral (Z)-Endoxifen capsules (serum endoxifen; incl. accumulation ratios and dose linearity); type: in vivo, human; details: female, human, serum, po, 4 mg/day, Day 1; 4 mg/day oral (n = 6); read-out: Median Tmax
Measurement Label: Tmax (h)
Your answer should be a plain number; it is taken to be in h.

[Q] Given CC/C(=C(\c1ccc(O)cc1)c1ccc(OCCNC)cc1)c1ccccc1 [(Z)-Endoxifen] , respond with its Tmax.
[A] 5.08

====

assay: Placebo controlled, dose escalation pharmacokinetic study of oral (Z)-Endoxifen capsules (serum endoxifen; incl. accumulation ratios and dose linearity); format: in vivo, human; details: female, human, serum, po, 4 mg/day, Day 1; 4 mg/day oral (n = 6); read-out: Tmax (Range)
Measurement Label: Tmax

[Q] Entry CC/C(=C(\c1ccc(O)cc1)c1ccc(OCCNC)cc1)c1ccccc1 [(Z)-Endoxifen] needs its Tmax filled in; supply it.
[A] 3 to 6 h

====

test: Placebo controlled, dose escalation pharmacokinetic study of oral (Z)-Endoxifen capsules (serum endoxifen; incl. accumulation ratios and dose linearity); assay type: in vivo, human; settings: female, human, serum, oral, Days 1 and 21; 1-4 mg; read-out: Median Tmax by dose level
Measurement Label: Tmax

[Q] Consider the molecule CC/C(=C(\c1ccc(O)cc1)c1ccc(OCCNC)cc1)c1ccccc1 [(Z)-Endoxifen] and give its recorded Tmax.
[A] 4 to 8 h

====

assay: Placebo controlled, dose escalation pharmacokinetic study of oral (Z)-Endoxifen capsules (serum endoxifen; incl. accumulation ratios and dose linearity); assay type: in vivo, human; details: female, human, serum, po, 2 mg/day, Day 21; 2 mg/day oral (n = 6); read-out: AUC24 hr, Arithmetic Mean
Measurement Label: AUC(0-t) (ng·h/mL)
# unit: ng·h/mL | format: bare number

[Q] Fill in AUC(0-t) for record CC/C(=C(\c1ccc(O)cc1)c1ccc(OCCNC)cc1)c1ccccc1 [(Z)-Endoxifen]
[A] 911

====

assay: Placebo controlled, dose escalation pharmacokinetic study of oral (Z)-Endoxifen capsules (serum endoxifen; incl. accumulation ratios and dose linearity); type: in vivo, human; settings: female, human, serum, oral, 2 mg, Day 1; 2 mg; N 6; read-out: Tmax, Median
Measurement Label: Tmax (h)
# number only, unit h dropped from output

[Q] For the molecule CC/C(=C(\c1ccc(O)cc1)c1ccc(OCCNC)cc1)c1ccccc1 [(Z)-Endoxifen] , give its measured Tmax value.
[A] 4.17

====

experiment: Placebo controlled, dose escalation pharmacokinetic study of oral (Z)-Endoxifen capsules (serum endoxifen; incl. accumulation ratios and dose linearity); format: in vivo, human; details: female, human, serum, oral, 1 mg; Day 1 hr 5; read-out: Serum concentration, Median
Measurement Label: concentration at 5 h (nM)
Respond with the bare value in nM.

[Q] Quote concentration at 5 h reported for CC/C(=C(\c1ccc(O)cc1)c1ccc(OCCNC)cc1)c1ccccc1 [(Z)-Endoxifen] please.
[A] 24.1

====

assay: Placebo controlled, dose escalation pharmacokinetic study of oral (Z)-Endoxifen capsules (serum endoxifen; incl. accumulation ratios and dose linearity); format: in vivo, human; conditions: female, human, serum, oral, 1 mg, Day 21; 1 mg; N = 5; read-out: AUC24hr, Median
Measurement Label: AUC(0-t) (ng·h/mL)
Expressed in ng·h/mL, but write only the number.

[Q] In one line, give reported AUC(0-t) of the entry CC/C(=C(\c1ccc(O)cc1)c1ccc(OCCNC)cc1)c1ccccc1 [(Z)-Endoxifen] .
[A] 527

====

assay: Placebo controlled, dose escalation pharmacokinetic study of oral (Z)-Endoxifen capsules (serum endoxifen; incl. accumulation ratios and dose linearity); format: in vivo, human; conditions: female, human, serum, oral, 1 mg; Day 1 hr 0.5; read-out: Serum concentration, Min
Measurement Label: concentration at 0.5 h (nM)
I only need the number, in nM, no unit after it.

[Q] Identify concentration at 0.5 h associated with the molecule CC/C(=C(\c1ccc(O)cc1)c1ccc(OCCNC)cc1)c1ccccc1 [(Z)-Endoxifen]
[A] 0

====

assay: Placebo controlled, dose escalation pharmacokinetic study of oral (Z)-Endoxifen capsules (serum endoxifen; incl. accumulation ratios and dose linearity); format: in vivo, human; details: female, human, serum, oral, 1 mg, Day 21; 1 mg; N = 5; read-out: Cmax, Median
Measurement Label: Cmax (ng/mL)
Expressed in ng/mL, but write only the number.

[Q] Retrieve Cmax measured for CC/C(=C(\c1ccc(O)cc1)c1ccc(OCCNC)cc1)c1ccccc1 [(Z)-Endoxifen] and print it.
[A] 29

====

Experiment: Placebo controlled, dose escalation pharmacokinetic study of oral (Z)-Endoxifen capsules (serum endoxifen; incl. accumulation ratios and dose linearity)
Assay type: in vivo, human
Settings: female, human, serum, oral, 1 mg; Day 1 hr 4; read-out: Serum concentration, Mean
Text: An objective of the study was to assess the safety and tolerability of oral (Z)-Endoxifen when administered […] orally as a capsule to healthy female volunteers. A secondary objective was to assess the pharmacokinetics of multiple doses of oral (Z)-Endoxifen in the subjects. Generally, healthy female volunteers aged ≥18 years and ≤65 years were enrolled. 24 participants were enrolled in 3 cohorts and will be administered study drug orally. […]
Measurement Label: concentration at 4 h (nM)
Your answer is read as nM, so omit the unit and give the number.

[Q] Hello, please tell me recorded concentration at 4 h for this one: CC/C(=C(\c1ccc(O)cc1)c1ccc(OCCNC)cc1)c1ccccc1 [(Z)-Endoxifen]
[A] 20.3
